Where these numbers come from: patent US20220257557A1

target: rePON1 (PON1, paraoxonase 1) (Homo sapiens, UniProt P27169); construct: purchased Thermo Corp. RP-75678; experiment: Prevention of inhibition of PON1 activity by oxidized linolenic acid (TBBL substrate); type: biochemical; settings: 30 μM compound with rePON1 30 min, then oxidized linolenic acid 2 h; TBBL substrate; normal control 100, negative control 73.64
Sequence (P27169 whole entry): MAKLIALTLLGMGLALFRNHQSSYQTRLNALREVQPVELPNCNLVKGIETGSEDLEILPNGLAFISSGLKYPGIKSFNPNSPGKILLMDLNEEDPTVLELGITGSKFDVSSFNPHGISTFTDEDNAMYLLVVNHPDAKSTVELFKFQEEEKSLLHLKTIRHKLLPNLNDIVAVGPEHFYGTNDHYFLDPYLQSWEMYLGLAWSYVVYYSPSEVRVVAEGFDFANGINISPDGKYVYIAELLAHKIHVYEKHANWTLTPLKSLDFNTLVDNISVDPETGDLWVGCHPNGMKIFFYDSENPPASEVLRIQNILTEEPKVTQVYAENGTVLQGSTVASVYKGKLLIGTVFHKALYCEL
Property: activity at 30 µM (%)
Answers are plain numbers, in %.

{"Compound": "CCCOc1ccc([C@H]2COc3c(ccc4c3CCC(C)(C)O4)C2)c(O)c1", "Unit Abbrev": "%", "Reported Value": 89.4}
{"Compound": "CCCCOc1ccc([C@@H]2COc3c(ccc4c3CCC(C)(C)O4)C2)c(O)c1", "Unit Abbrev": "%", "Reported Value": 94.1}
{"Compound": "CCOc1ccc(C2COc3c(ccc4c3CCC(C)(C)O4)C2)c(O)c1 (centres unmarked)", "Unit Abbrev": "%", "Reported Value": 89}

Please look at the items below and tell me activity at 30 µM for each one, in order.
1. CCOc1cc(O)ccc1C1COc2c(ccc3c2CCC(C)(C)O3)C1 (centres unmarked)
2. CCOc1ccc([C@H]2COc3c(ccc4c3CCC(C)(C)O4)C2)c(O)c1
3. CC1(C)C=Cc2c(ccc3c2OCC(c2ccc(O)cc2O)=C3)O1
4. CCCc1ccc([C@@H]2COc3c(ccc4c3CCC(C)(C)O4)C2)c(O)c1
5. CCCCOc1ccc([C@H]2COc3c(ccc4c3CCC(C)(C)O4)C2)c(O)c1

*A*
1: 83.8; 2: 80.7; 3: 85.9; 4: 90.6; 5: 94.9

---

Please go through the items and note down their activity at 30 µM.
target: rePON1 (PON1, paraoxonase 1) (Homo sapiens, UniProt P27169); construct: purchased Thermo Corp. RP-75678; test: Prevention of inhibition of PON1 activity by oxidized linolenic acid (TBBL substrate); type: biochemical; conditions: 30 μM compound with rePON1 30 min, then oxidized linolenic acid 2 h; TBBL substrate; normal control 100, negative control 73.64
One number for each entry, in %.

{"Molecule": "CCCc1ccc([C@H]2COc3c(ccc4c3CCC(C)(C)O4)C2)c(O)c1 [Formula V-3]", "Property": "activity at 30 µM", "Unit Abbrev": "%", "Reported Value": 95.1}
{"Molecule": "CCCOc1ccc([C@@H]2COc3c(ccc4c3CCC(C)(C)O4)C2)c(O)c1 [Formula IV-2]", "Property": "activity at 30 µM", "Unit Abbrev": "%", "Reported Value": 93.5}
{"Molecule": "CC1(C)C=Cc2c(ccc3c2OC[C@@H](c2ccc(O)cc2O)C3)O1 [Glabridin, glabridin, reference compound]", "Property": "activity at 30 µM", "Unit Abbrev": "%", "Reported Value": 82.8}

Here's the next entry for you.
Recorded activity at 30 µM (molecule CCOc1ccc([C@@H]2COc3c(ccc4c3CCC(C)(C)O4)C2)c(O)c1 [Formula IV-1] ): 95
